- Measurement Notes: Ocular biodistribution of PS after topical eye drops in New Zealand white rabbits (HPLC)
- Format: in vivo, rabbit
- Measurement Parameters: New Zealand white, rabbit, cornea, topical, 3 % PS, 8 h; topical, sodium alginate/Tween 80 in-situ gel, 3% PS; read-out: PS in Cornea
Measured Attribute: concentration at 8 h

Task item: I have this compound here, CCOP(=O)(OCC)OCCCCOC(=O)CC1=C(C)/C(=C/c2ccc([S+](C)[O-])cc2)c2ccc(F)cc21 (stereo not shown) , and I need its recorded concentration at 8 h.
Reply: 0 nM

====

- Measurement Notes: Ocular biodistribution of PS after topical eye drops in New Zealand white rabbits (HPLC)
- Format: in vivo, rabbit
- Measurement Parameters: New Zealand white, rabbit, aqueous humor, topical, 8 h; topical, 0.4% gellan gum in-situ gel, 2.4-3% PS; read-out: PS in Aqueous humor
Measured Attribute: concentration at 8 h (nM)
Just the number please, in nM, no unit attached.

Task item: I have this compound here, CCOP(=O)(OCC)OCCCCOC(=O)CC1=C(C)/C(=C/c2ccc([S+](C)[O-])cc2)c2ccc(F)cc21 (stereo not shown) , and I need its recorded concentration at 8 h.
Reply: 0

====

- Measurement Notes: Ocular biodistribution of PS after topical eye drops in New Zealand white rabbits (HPLC)
- Type: in vivo, rabbit
- Measurement Parameters: New Zealand white, rabbit, vitreous, topical, 5.4 % PS, 6 h; topical, Poloxamer 407 in-situ gel, 5.4% PS; read-out: PS in Vitreous
Measured Attribute: concentration at 6 h
The number alone won't do; follow it with the unit.

Task item: I have this compound here, CCOP(=O)(OCC)OCCCCOC(=O)CC1=C(C)/C(=C/c2ccc([S+](C)[O-])cc2)c2ccc(F)cc21 (stereo not shown) , and I need its recorded concentration at 6 h.
Reply: 0 nM

====

- Measurement Notes: Ocular biodistribution of PS after topical eye drops in New Zealand white rabbits (HPLC)
- Assay type: in vivo, rabbit
- Measurement Parameters: New Zealand white, rabbit, lacrimal gland, topical, 1 h; topical eye drops, mPEG-PLA nanoparticles; read-out: PS in Lacrimal gland
Measured Attribute: concentration at 1 h (µM)
Just the number please, in µM, no unit attached.

Task item: I have this molecule here, CCOP(=O)(OCC)OCCCCOC(=O)CC1=C(C)/C(=C/c2ccc([S+](C)[O-])cc2)c2ccc(F)cc21 (stereo not shown) , and I need its recorded concentration at 1 h.
Reply: 3.5

====

- Measurement Notes: Ocular biodistribution of PS after topical eye drops in New Zealand white rabbits (HPLC)
- Format: in vivo, rabbit
- Measurement Parameters: New Zealand white, rabbit, sclera, topical, 3.5 % PS solution (eye drops), 1 h; topical eye drops, 3.5% PS solution in propylene glycol; read-out: PS in Sclera
Measured Attribute: concentration at 1 h
The number alone won't do; follow it with the unit.

Task item: I have this molecule here, CCOP(=O)(OCC)OCCCCOC(=O)CC1=C(C)/C(=C/c2ccc([S+](C)[O-])cc2)c2ccc(F)cc21 (stereo not shown) , and I need its recorded concentration at 1 h.
Reply: 0 nM

====

- System Tested: MMP-1 (collagenase I) (Homo sapiens, UniProt P03956)
- Sequence (P03956 100-469): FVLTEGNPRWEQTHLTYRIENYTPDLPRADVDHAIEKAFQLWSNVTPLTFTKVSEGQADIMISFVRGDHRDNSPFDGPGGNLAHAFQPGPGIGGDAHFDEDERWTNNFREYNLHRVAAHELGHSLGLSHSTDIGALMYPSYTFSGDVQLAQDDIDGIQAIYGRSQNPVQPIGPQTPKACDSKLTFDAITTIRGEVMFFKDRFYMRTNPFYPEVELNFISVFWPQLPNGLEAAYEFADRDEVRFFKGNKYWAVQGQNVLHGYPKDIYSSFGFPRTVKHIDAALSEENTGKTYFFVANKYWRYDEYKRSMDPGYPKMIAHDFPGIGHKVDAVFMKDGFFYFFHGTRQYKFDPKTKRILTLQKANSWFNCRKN
pIC50: −log10 of the molar value.
Measured Attribute: pIC50

Task item: I have this compound here, CCOP(=O)(OCC)OCCCCOC(=O)CC1=C(C)/C(=C/c2ccc([S+](C)[O-])cc2)c2ccc(F)cc21 (stereo not shown) , and I need its recorded pIC50.
Reply: > 7.00

====

- Measurement Notes: Ocular biodistribution of PS after topical eye drops in New Zealand white rabbits (HPLC)
- Type: in vivo, rabbit
- Measurement Parameters: New Zealand white, rabbit, ciliary body, topical, 5.4 % PS, 6 h; topical, Poloxamer 407 in-situ gel, 5.4% PS; read-out: PS in Ciliary body
Measured Attribute: concentration at 6 h (nM)
Just the number please, in nM, no unit attached.

Task item: I have this compound here, CCOP(=O)(OCC)OCCCCOC(=O)CC1=C(C)/C(=C/c2ccc([S+](C)[O-])cc2)c2ccc(F)cc21 (stereo not shown) , and I need its recorded concentration at 6 h.
Reply: 0

====

- Measurement Notes: Ocular biodistribution of PS after topical eye drops in New Zealand white rabbits (HPLC)
- Type: in vivo, rabbit
- Measurement Parameters: New Zealand white, rabbit, sclera, topical, 2 h; topical, 0.5% gellan gum in-situ gel, 2.4~3% PS; read-out: PS in Sclera
Measured Attribute: concentration at 2 h (nM)
Just the number please, in nM, no unit attached.

Task item: I have this compound here, CCOP(=O)(OCC)OCCCCOC(=O)CC1=C(C)/C(=C/c2ccc([S+](C)[O-])cc2)c2ccc(F)cc21 (stereo not shown) , and I need its recorded concentration at 2 h.
Reply: 0

====

- Measurement Notes: Ocular biodistribution of PS after topical eye drops in New Zealand white rabbits (HPLC)
- Format: in vivo, rabbit
- Measurement Parameters: New Zealand white, rabbit, iris, topical, 2 h; topical eye drops, mPEG-PLA nanoparticles; read-out: PS in Iris
Measured Attribute: concentration at 2 h
The number alone won't do; follow it with the unit.

Task item: I have this compound here, CCOP(=O)(OCC)OCCCCOC(=O)CC1=C(C)/C(=C/c2ccc([S+](C)[O-])cc2)c2ccc(F)cc21 (stereo not shown) , and I need its recorded concentration at 2 h.
Reply: 1300 nM

====

- Measurement Notes: Ocular biodistribution of PS after topical eye drops in New Zealand white rabbits (HPLC)
- Type: in vivo, rabbit
- Measurement Parameters: New Zealand white, rabbit, retina, topical, 3 % PS, 1 h; topical, sodium alginate/Tween 80 in-situ gel, 3% PS; read-out: PS in Retina
Measured Attribute: concentration at 1 h (nM)
Just the number please, in nM, no unit attached.

Task item: I have this compound here, CCOP(=O)(OCC)OCCCCOC(=O)CC1=C(C)/C(=C/c2ccc([S+](C)[O-])cc2)c2ccc(F)cc21 (stereo not shown) , and I need its recorded concentration at 1 h.
Reply: 0

====

- Measurement Notes: Ocular biodistribution of PS after topical eye drops in New Zealand white rabbits (HPLC)
- Format: in vivo, rabbit
- Measurement Parameters: New Zealand white, rabbit, retina, topical, 2 h; topical, 0.5% gellan gum in-situ gel, 2.4~3% PS; read-out: PS in Retina
- Method: Results: The above PS formulation was administered topically as eye drops to the eyes of New Zealand white rabbits. The levels of PS in ocular tissues 1 h and 3 h later were determined by HPLC. The Table below summarizes the findings: Results: The above PS formulation was administered topically as eye drops to the eyes of New Zealand white rabbits. The levels of PS in ocular tissues at 2 h later were determined by HPLC. The table below summarizes the findings. […]
Measured Attribute: concentration at 2 h (nM)
Just the number please, in nM, no unit attached.

Task item: I have this molecule here, CCOP(=O)(OCC)OCCCCOC(=O)CC1=C(C)/C(=C/c2ccc([S+](C)[O-])cc2)c2ccc(F)cc21 (stereo not shown) , and I need its recorded concentration at 2 h.
Reply: 0

====

- Measurement Notes: Ocular biodistribution of PS after topical eye drops in New Zealand white rabbits (HPLC)
- Type: in vivo, rabbit
- Measurement Parameters: New Zealand white, rabbit, cornea, topical, 5.4 % PS, 6 h; topical, Poloxamer 407 in-situ gel, 5.4% PS; read-out: PS in Cornea
Measured Attribute: concentration at 6 h (µM)
Just the number please, in µM, no unit attached.

Task item: I have this molecule here, CCOP(=O)(OCC)OCCCCOC(=O)CC1=C(C)/C(=C/c2ccc([S+](C)[O-])cc2)c2ccc(F)cc21 (stereo not shown) , and I need its recorded concentration at 6 h.
Reply: 13.6

====

- Measurement Notes: Ocular biodistribution of PS after topical eye drops in New Zealand white rabbits (HPLC)
- Format: in vivo, rabbit
- Measurement Parameters: New Zealand white, rabbit, aqueous humor, topical, 5.4 % PS, 6 h; topical, Poloxamer 407 in-situ gel, 5.4% PS; read-out: PS in Aqueous humor
Measured Attribute: concentration at 6 h (µM)
Just the number please, in µM, no unit attached.

Task item: I have this compound here, CCOP(=O)(OCC)OCCCCOC(=O)CC1=C(C)/C(=C/c2ccc([S+](C)[O-])cc2)c2ccc(F)cc21 (stereo not shown) [PS, phosphosulindac] , and I need its recorded concentration at 6 h.
Reply: 0.3
